system: PTEC-TERT1 cells; test: EGF assay, supernatant of PTEC-TERT1 cells; settings: PTEC-TERT1, Day 3, 33 μM (Table 3)
l = locked nucleic acid (LNA); d = 2'-deoxy (DNA)
The label is Y for EGF below 200 % saline and N for EGF equal to or exceeding 200 % saline.

Q. Find out if reported EGF for GCtgtgtgagcttGG (antisense GCTGTGTGAGCTTGG; sugars from the 5' end l2 d11 l2, backbone and methylation of C not given here) [Compound 4-1] is less than 200 % saline
A. N

Q. Report whether reported EGF is lower than 200 % saline (strictly) for AATgctacaaaaCCCA (antisense AATGCTACAAAACCCA; sugars from the 5' end l3 d9 l4, backbone and methylation of C not given here) [Compound 2-1]
A. Y

Q. Given TGCtacaaaacCCA (antisense TGCTACAAAACCCA; sugars from the 5' end l3 d8 l3, backbone and methylation of C not given here) [Compound 3-1] , is recorded EGF strictly lower than 200 % saline?
A. N

Q. Quick check: EGF of TAAggcaatcaagGTA (TAAGGCAATCAAGGTA; chemistry not given here) [Compound 5-1] under 200 % saline?
A. N

Q. Is EGF strictly under 200 % saline for the entry CGTcagtatgcgAATc (CGTCAGTATGCGAATC; chemistry not given here) [Compound 1-1] ?
A. N
